Tested on: Rattus norvegicus
TEST_DESCRIPTION: Mean number of shocks produced by the compound in rats at a dose of 0.3 mg/kg was determined by vogel's punished licking assay
Format: functional
Outcome label depends on Mean no. of shocks relative to 5: at/above gives Satisfied, below gives Not satisfied.

For orientation, consider the following solved cases.
C[C@@H]1CN(C(=O)N2Cc3c(C(=O)OC(C)(C)C)ncn3-c3ccc(C(F)(F)F)cc32)C[C@H](C)N1: Not satisfied
CC(C)N1[C@H](C)CN(C(=O)N2Cc3c(C(=O)OC(C)(C)C)ncn3-c3ccc(Cl)cc32)C[C@@H]1C: Satisfied
CCCC(=O)O.C[C@@H]1CN(C(=O)N2Cc3c(C(=O)OC(C)(C)C)ncn3-c3ccc(Cl)cc32)C[C@H](C)N1: Satisfied
C[C@@H]1CN(C(=O)N2Cc3c(C(=O)OC(C)(C)C)ncn3-c3ccc(Cl)cc32)C[C@H](C)N1C: Satisfied

--- query ---
Prompt: Could you verify whether the entry C[C@H]1CN(C(=O)N2Cc3c(C(=O)OC(C)(C)C)ncn3-c3ccc(Cl)cc32)C[C@H](C)N1 shows Mean no. of shocks of no less than 5?
Completion: Not satisfied
